Ref: patent US8378117B2

target: CB1 receptor (Homo sapiens, UniProt P21554)
Construct: expressed in transfected cells
Sequence (P21554 whole entry): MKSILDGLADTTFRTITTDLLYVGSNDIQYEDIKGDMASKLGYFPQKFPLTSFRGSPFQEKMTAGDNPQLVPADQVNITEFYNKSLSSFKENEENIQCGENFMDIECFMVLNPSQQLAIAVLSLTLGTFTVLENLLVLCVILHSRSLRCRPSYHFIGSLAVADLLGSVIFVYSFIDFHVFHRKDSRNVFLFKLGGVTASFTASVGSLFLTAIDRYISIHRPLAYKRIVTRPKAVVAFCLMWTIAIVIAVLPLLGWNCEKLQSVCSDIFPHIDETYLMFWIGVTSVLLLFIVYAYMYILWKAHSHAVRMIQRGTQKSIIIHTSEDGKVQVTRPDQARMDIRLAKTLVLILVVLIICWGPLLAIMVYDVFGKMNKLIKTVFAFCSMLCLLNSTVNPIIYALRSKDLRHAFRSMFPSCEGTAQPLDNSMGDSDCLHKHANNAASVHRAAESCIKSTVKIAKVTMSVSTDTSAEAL
experiment-notes: Binding assay for CB1 agonists or inverse agonists (SK-N-MC membranes, [3H]-CP-55,940)
condition-set: Cannabinoid CB1 Receptor Binding IC50, calculated by linear regression from percent inhibition at various test concentrations
pIC50: −log10 of the molar value.
reported-endpoint: pIC50

>>> recorded_result("COC(=O)[C@@H](Cc1ccc(O)cc1)NC(=O)c1nn(-c2ccc(Cl)cc2Cl)c2c1CCCCC2Cc1cccc(F)c1 (stereo partly shown)")
6.15
>>> recorded_result("Cc1ccc(CC2CCCCc3c(C(=O)NC4C5(C)CCC(C5)C4(C)C)nn(-c4ccc(F)cc4)c32)cc1 (stereo not shown)")
6.70
>>> recorded_result("COC(=O)[C@H](Cc1ccc(F)cc1)NC(=O)c1n[nH]c2c1CCCC/C2=C\\c1ccc(Cl)cc1")
7.52
>>> recorded_result("COc1ccc(/C=C2\\CCCCc3c(C(=O)N[C@H](C)c4ccccc4)nn(-c4ccc(Cl)cc4Cl)c32)cc1")
8.22
>>> recorded_result("O=C(N[C@H](CO)c1ccccc1)c1nn(-c2ccc(Cl)cc2Cl)c2c1CCCC/C2=C\\c1ccc(F)cc1")
7.52
>>> recorded_result("O=C(N[C@@H]1CCc2ccccc21)c1nn(-c2ccc(Cl)cc2Cl)c2c1CCCC/C2=C\\c1ccc(F)cc1")
7.70
>>> recorded_result("C[C@H](NC(=O)c1nn(-c2cc(Cl)ccc2Cl)c2c1CCCC/C2=C\\c1ccc(Cl)cc1)c1ccccc1")
7.70

====

target: CB2 receptor (Homo sapiens)
Construct: expressed in transfected cells
experiment-notes: Binding assay for CB2 agonists or inverse agonists (SK-N-MC membranes, [3H]-CP-55,940)
condition-set: read-out: CB2 receptor binding percent inhibition, test concentration 0.2 μM (footnote 2)
reported-endpoint: inhibition at 0.2 µM (%)

>>> recorded_result("COc1ccc(/C=C2\\CCCCc3c(C(=O)N[C@H](C)c4ccccc4)nn(-c4ccc(Cl)cc4Cl)c32)cc1")
42
>>> recorded_result("COc1ccc(/C=C2\\CCCCc3c(C(=O)N[C@H](C)c4ccccn4)nn(-c4ccc(Cl)cc4Cl)c32)cc1")
19
>>> recorded_result("O=C(c1nn(-c2ccc(Cl)cc2Cl)c2c1CCCC/C2=C\\c1ccc(F)cc1)N1CCCCC1c1ccccn1 (stereo not shown)")
22
>>> recorded_result("O=C(NCCc1ccccn1)c1nn(-c2ccc(Cl)cc2Cl)c2c1CCCC/C2=C\\c1ccc(Cl)cc1")
5

====

target: CB1 receptor (Homo sapiens, UniProt P21554)
Construct: expressed in transfected cells
experiment-notes: Binding assay for CB1 agonists or inverse agonists (SK-N-MC membranes, [3H]-CP-55,940)
condition-set: read-out: CB1 receptor binding percent inhibition, test concentration 1 μM (footnote 1)
Protocol: The human CB1 and CB2 receptors were stably expressed in SK-N-MC cells transfected with pcDNA3 CB-1 (human) or pcDNA3 CB-2 (human). […] On the day of the assay, the pellet was thawed on ice and diluted in assay buffer (50 mM Tris-HCl, 5 mM MgCl2, 2.5 mM EDTA, 0.5 mg/mL fatty acid free bovine serum aldumin, pH 7.5). […] Non-specific binding was measured in wells containing WIN 55,212 (10 uM). […]
reported-endpoint: inhibition at 1 µM (%)

>>> recorded_result("CC12CCC(C1)C(C)(C)[C@H]2NC(=O)c1nn(C2CCCCC2)c2c1CCCCC2Cc1cccc(Cl)c1 (some centres unmarked) [Cpd 4]")
51
>>> recorded_result("O=C(NN1CCCCC1)c1nn(-c2ccc(Cl)cc2Cl)c2c1CCCCC2Cc1ccc(Cl)cc1 (centres unmarked) [Cpd 27]")
0
>>> recorded_result("O=C(N[C@@H](CO)c1ccccc1)c1nn(C2CCCCC2)c2c1CCCCC2Cc1ccc(F)cc1 (stereo in doubt) [Cpd 67]")
44
>>> recorded_result("O=C(NC1CCC1)c1nn(Cc2ccc(Cl)cc2)c2c1CCCCC2Cc1ccc(Cl)cc1 (centres unmarked) [Cpd 30]")
28
>>> recorded_result("O=C(NC1CC1)c1nn(Cc2ccc(Cl)cc2)c2c1CCCCC2Cc1cccc(Cl)c1 (centres unmarked) [Cpd 35]")
22
>>> recorded_result("COC(=O)[C@@H](Cc1ccc(F)cc1)NC(=O)c1nn(-c2ccc(Cl)cc2Cl)c2c1CCCCC2Cc1cccc(Cl)c1 (some centres unmarked) [Cpd 103]")
76
>>> recorded_result("O=C(NCc1ccccc1)c1nn(C2CCCCC2)c2c1CCCCC2Cc1ccc(F)cc1 (centres unmarked) [Cpd 61]")
36
>>> recorded_result("CC12CCC(C1)C(C)(C)[C@H]2NC(=O)c1nn(-c2ccc(F)cc2F)c2c1CCCCC2Cc1cccc(F)c1 (some centres unmarked) [Cpd 92]")
86

====

target: CB2 receptor (Homo sapiens, UniProt P34972)
Construct: expressed in transfected cells
Sequence (P34972 whole entry): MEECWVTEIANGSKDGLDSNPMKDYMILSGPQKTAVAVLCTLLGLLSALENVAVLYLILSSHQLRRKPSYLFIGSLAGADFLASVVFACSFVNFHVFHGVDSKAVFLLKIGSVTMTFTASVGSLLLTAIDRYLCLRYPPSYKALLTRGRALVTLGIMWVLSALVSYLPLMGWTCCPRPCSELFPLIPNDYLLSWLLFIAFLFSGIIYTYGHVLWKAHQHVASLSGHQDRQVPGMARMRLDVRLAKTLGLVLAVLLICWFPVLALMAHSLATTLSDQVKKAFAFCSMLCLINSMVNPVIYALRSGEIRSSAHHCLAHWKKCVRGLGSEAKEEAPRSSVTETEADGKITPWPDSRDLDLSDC
experiment-notes: Binding assay for CB2 agonists or inverse agonists (SK-N-MC membranes, [3H]-CP-55,940)
condition-set: test concentration 0.2 μM (footnote 2)
reported-endpoint: CB2 receptor binding percent inhibition

>>> recorded_result("C[C@H](NC(=O)c1n[nH]c2c1CCCC/C2=C\\c1ccc(Cl)cc1)C1CCCCC1")
"^(2)100%"
>>> recorded_result("C[C@@H](NC(=O)c1n[nH]c2c1CCCC/C2=C\\c1ccc(Cl)cc1)C1CCCCC1")
"^(2)100%"

====

target: CB1 receptor (Homo sapiens, UniProt P21554)
Construct: expressed in transfected cells
experiment-notes: cell-based
condition-set: CB1 Receptor Functional Inverse Agonist EC50, forskolin induced β-galactosidase activity, SK-N-MC cells
pEC50: −log10 of the molar value.
reported-endpoint: pEC50

>>> recorded_result("C[C@H](NS(=O)(=O)/C=C/c1nn(-c2ccc(F)cc2F)c2c1CCCCC2Cc1cccc(F)c1)c1ccccc1 (some centres unmarked)")
7.30
>>> recorded_result("C[C@H](NC(=O)c1nn(-c2cc(Cl)ccc2Cl)c2c1CCCC/C2=C\\c1ccc(Cl)cc1)C1CCCCC1")
8.52
>>> recorded_result("C[C@@H](NC(=O)c1nn(-c2ccc(Cl)cc2Cl)c2c1CCCC/C2=C\\c1ccc(F)cc1)c1ccccn1")
9.00
>>> recorded_result("O=C(NN1CCCCC1)c1nn(-c2ccc(Cl)cc2Cl)c2c1CCCCC2Cc1cccc(F)c1 (centres unmarked)")
7.00
>>> recorded_result("CC(C)(NC(=O)c1nn(-c2ccc(Cl)cc2Cl)c2c1CCCC/C2=C\\c1ccc(F)cc1)c1ccccc1")
8.05
>>> recorded_result("C[C@H](NS(=O)(=O)/C=C/c1nn(C)c2c1CCCCC2Cc1cccc(F)c1)c1ccccc1 (some centres unmarked)")
7.00
>>> recorded_result("O=C(N[C@@H]1c2ccccc2C[C@@H]1O)c1nn(C2CCCCC2)c2c1CCCC[C@@H]2Cc1ccc(F)cc1")
7.00
>>> recorded_result("O=C(c1nn(-c2ccc(F)cc2F)c2c1CCCCC2Cc1cccc(F)c1)N1CCOCC1 (centres unmarked)")
7.00

====

target: CB2 receptor (Homo sapiens)
Construct: expressed in transfected cells
experiment-notes: Binding assay for CB2 agonists or inverse agonists (SK-N-MC membranes, [3H]-CP-55,940)
condition-set: read-out: CB2 receptor binding percent inhibition, test concentration 0.2 μM (footnote 2)
The following compounds are listed with their measured inhibition at 0.2 µM values.
reported-endpoint: inhibition at 0.2 µM (%)

>>> recorded_result("C[C@@H](NC(=O)c1nn(-c2ccc(Cl)cc2Cl)c2c1CCCC/C2=C\\c1ccc(F)cc1)c1ccccc1")
10
>>> recorded_result("C[C@H](NC(=O)c1nn(-c2ccc(Cl)cc2Cl)c2c1CCCC/C2=C\\c1ccc(Cl)cc1)C1CCCCC1")
22
>>> recorded_result("COC(=O)[C@H](Cc1ccc(F)cc1)NC(=O)c1n[nH]c2c1CCCC/C2=C\\c1ccc(Cl)cc1")
93
>>> recorded_result("COc1ccc(/C=C2\\CCCCc3c(C(=O)NCc4ccccn4)nn(-c4ccc(Cl)cc4Cl)c32)cc1")
49
>>> recorded_result("COC(=O)[C@@H](Cc1ccc(F)cc1)NC(=O)c1nn(C)c2c1CCCC/C2=C\\c1cccc(F)c1")
96
>>> recorded_result("O=C(NN1CCOCC1)c1nn(-c2ccc(Cl)cc2Cl)c2c1CCCC/C2=C\\c1ccc(F)cc1")
15
>>> recorded_result("COc1ccc(/C=C2\\CCCCc3c(C(=O)N[C@H](CO)c4ccccc4)nn(-c4ccc(Cl)cc4Cl)c32)cc1")
24
>>> recorded_result("Cn1nc(C(=O)N[C@H](CO)Cc2ccc(O)cc2)c2c1/C(=C/c1cccc(F)c1)CCCC2")
78
>>> recorded_result("C[C@H](NC(=O)c1nn(-c2cc(Cl)ccc2Cl)c2c1CCCC/C2=C\\c1ccc(Cl)cc1)c1ccccc1")
68
>>> recorded_result("O=C(N[C@@H](CO)c1ccccc1)c1n[nH]c2c1CCCC/C2=C\\c1ccc(Cl)cc1")
93
>>> recorded_result("C[C@@H](NC(=O)c1nn(-c2ccccc2Cl)c2c1CCCC/C2=C\\c1ccc(Cl)cc1)C1CCCCC1")
17
>>> recorded_result("COC(=O)[C@@H](Cc1ccc(F)cc1)NC(=O)c1n[nH]c2c1CCCC/C2=C\\c1ccc(Cl)cc1")
96
